Assay: Pharmacokinetic study of LGZGD components in plasma of normal and NAFLD rats after oral administration (UPLC-MS/MS)
Type: in vivo, Male Sprague–Dawley rats
Settings: male, Sprague-Dawley, rat, plasma, po, 23 g/kg, Model (NAFLD) group, male SD rats, oral LGZGD extract 23 g/kg, plasma, mean ± SD, n = 6; read-out: MRT0-t
Exercise: for every item that follows, state its recorded MRT last.
Lab book: enter the figure in h, no units written.

Looking up C=C(CC[C@@H](C(=O)O)[C@H]1[C@H](O)C[C@@]2(C)C3=CC[C@H]4C(C)(C)[C@@H](O)CC[C@]4(C)C3=CC[C@]12C)C(C)C [Dehydrotumulosic acid, dehydrotumulosic acid] , I see its MRT last listed as 10.4

Looking up CC1(C)[C@@H](O[C@H]2O[C@H](C(=O)O)[C@@H](O)[C@H](O)[C@H]2O[C@@H]2O[C@H](C(=O)O)[C@@H](O)[C@H](O)[C@H]2O)CC[C@]2(C)[C@H]3C(=O)C=C4[C@@H]5C[C@@](C)(C(=O)O)CC[C@]5(C)CC[C@@]4(C)[C@]3(C)CC[C@@H]12 , I see its MRT last listed as 16

Looking up CC1(C)[C@@H](O)CC[C@]2(C)[C@H]3C(=O)C=C4[C@@H]5C[C@@](C)(C(=O)O)CC[C@]5(C)CC[C@@]4(C)[C@]3(C)CC[C@@H]12 , I see its MRT last listed as 15.6

----------
Exercise: for every item that follows, state its recorded half-life.
Assay: Pharmacokinetic study of LGZGD components in plasma of normal and NAFLD rats after oral administration (UPLC-MS/MS)
Format: in vivo, Male Sprague–Dawley rats
Conditions: male, Sprague-Dawley, rat, plasma, po, 23 g/kg, Normal group, male SD rats, oral LGZGD extract 23 g/kg, plasma, mean ± SD, n = 6
Lab book: enter the figure in h, no units written.

Looking up O=C(O)/C=C/c1ccccc1 [Cinnamic acid, cinnamic acid] , I see its half-life listed as 12.8

Looking up CC1(C)[C@@H](O[C@H]2O[C@H](C(=O)O)[C@@H](O)[C@H](O)[C@H]2O[C@@H]2O[C@H](C(=O)O)[C@@H](O)[C@H](O)[C@H]2O)CC[C@]2(C)[C@H]3C(=O)C=C4[C@@H]5C[C@@](C)(C(=O)O)CC[C@]5(C)CC[C@@]4(C)[C@]3(C)CC[C@@H]12 [Glycyrrhizic acid, glycyrrhizic acid] , I see its half-life listed as 6.3

Looking up O=C(/C=C/c1ccc(O[C@@H]2O[C@H](CO)[C@@H](O)[C@H](O)[C@H]2O)cc1)c1ccc(O)cc1O [Isoliquiritin, isoliquiritin] , I see its half-life listed as 9.2

Looking up C=C(CC[C@@H](C(=O)O)[C@H]1[C@H](O)C[C@@]2(C)C3=CC[C@H]4C(C)(C)[C@@H](O)CC[C@]4(C)C3=CC[C@]12C)C(C)C [Dehydrotumulosic acid, dehydrotumulosic acid] , I see its half-life listed as 19

Values were extracted from paper PMC10192568.
